Could you please report measured Ki for the items listed next?
- ASSAY TARGET: 5-HT1A receptors (Rattus norvegicus, UniProt P19327)
- Sequence (P19327 whole entry): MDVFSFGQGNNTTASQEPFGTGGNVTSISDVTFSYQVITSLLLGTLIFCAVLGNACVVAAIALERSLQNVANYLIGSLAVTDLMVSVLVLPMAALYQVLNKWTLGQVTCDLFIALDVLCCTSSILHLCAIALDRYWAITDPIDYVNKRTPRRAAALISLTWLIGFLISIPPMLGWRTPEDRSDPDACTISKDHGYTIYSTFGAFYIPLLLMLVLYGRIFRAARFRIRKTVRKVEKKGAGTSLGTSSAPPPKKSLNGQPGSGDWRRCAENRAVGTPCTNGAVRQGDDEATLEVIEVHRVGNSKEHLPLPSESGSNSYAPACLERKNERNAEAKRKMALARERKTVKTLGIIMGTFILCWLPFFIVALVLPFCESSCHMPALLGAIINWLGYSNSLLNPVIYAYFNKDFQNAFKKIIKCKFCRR
- ASSAY SETUP: read-out: Ki, nM 5-HT1A; [3H]-8-OH-DPAT, rat hippocampal membranes
Answers are plain numbers, in nM.

[[record]]
molecule = "COc1ccc2c(c1)C(NC(=O)CCCCCN1CCN(c3ccccc3OC)CC1)CCC2 (stereo not shown)"
result_number = 39


Record Ki per entry; entries follow.
1. COc1ccccc1N1CCN(CCCC(=O)NC2CCCc3ccccc32)CC1 (stereo not shown)
2. CC(=O)c1cccc(N2CCN(CCCCCC(=O)NC3CCCc4ccccc43)CC2)c1 (stereo not shown)
3. COc1ccc2c(c1)CCCC2NC(=O)CCCCN1CCN(c2ccccc2OC)CC1 (stereo not shown)
4. COc1ccccc1N1CCN(CCCCC(=O)NC2CCCc3ccccc32)CC1 (stereo not shown)
5. CS(=O)(=O)c1ccccc1N1CCN(CCCCCC(=O)NC2CCCc3ccccc32)CC1 (stereo not shown)
6. COc1ccc(OC)c(N2CCN(CCCCCC(=O)NC3CCCc4ccccc43)CC2)c1 (stereo not shown)
7. O=C(CCCCCN1CCN(c2ccccc2[N+](=O)[O-])CC1)NC1CCCc2ccccc21 (stereo not shown)

1. 245
2. 676
3. 23.2
4. 9
5. 3120
6. 911
7. 183

Please supply Ki for each of the following items, keeping them in order.
1. COc1ccccc1N1CCN(CCCCC(=O)NC2CCCc3c(OC)cccc32)CC1 (stereo not shown)
2. O=C(CCCCCN1CCN(c2ccccc2O)CC1)NC1CCCc2ccccc21 (stereo not shown)

54.4
24
